The reported numbers originate from ChEMBL document CHEMBL5291721.

- TARGET_OR_TEST_SYSTEM: cGMP-inhibited 3',5'-cyclic phosphodiesterase 3A (Homo sapiens, UniProt Q14432); also: assay procedure not described here
- Sequence (Q14432 whole entry): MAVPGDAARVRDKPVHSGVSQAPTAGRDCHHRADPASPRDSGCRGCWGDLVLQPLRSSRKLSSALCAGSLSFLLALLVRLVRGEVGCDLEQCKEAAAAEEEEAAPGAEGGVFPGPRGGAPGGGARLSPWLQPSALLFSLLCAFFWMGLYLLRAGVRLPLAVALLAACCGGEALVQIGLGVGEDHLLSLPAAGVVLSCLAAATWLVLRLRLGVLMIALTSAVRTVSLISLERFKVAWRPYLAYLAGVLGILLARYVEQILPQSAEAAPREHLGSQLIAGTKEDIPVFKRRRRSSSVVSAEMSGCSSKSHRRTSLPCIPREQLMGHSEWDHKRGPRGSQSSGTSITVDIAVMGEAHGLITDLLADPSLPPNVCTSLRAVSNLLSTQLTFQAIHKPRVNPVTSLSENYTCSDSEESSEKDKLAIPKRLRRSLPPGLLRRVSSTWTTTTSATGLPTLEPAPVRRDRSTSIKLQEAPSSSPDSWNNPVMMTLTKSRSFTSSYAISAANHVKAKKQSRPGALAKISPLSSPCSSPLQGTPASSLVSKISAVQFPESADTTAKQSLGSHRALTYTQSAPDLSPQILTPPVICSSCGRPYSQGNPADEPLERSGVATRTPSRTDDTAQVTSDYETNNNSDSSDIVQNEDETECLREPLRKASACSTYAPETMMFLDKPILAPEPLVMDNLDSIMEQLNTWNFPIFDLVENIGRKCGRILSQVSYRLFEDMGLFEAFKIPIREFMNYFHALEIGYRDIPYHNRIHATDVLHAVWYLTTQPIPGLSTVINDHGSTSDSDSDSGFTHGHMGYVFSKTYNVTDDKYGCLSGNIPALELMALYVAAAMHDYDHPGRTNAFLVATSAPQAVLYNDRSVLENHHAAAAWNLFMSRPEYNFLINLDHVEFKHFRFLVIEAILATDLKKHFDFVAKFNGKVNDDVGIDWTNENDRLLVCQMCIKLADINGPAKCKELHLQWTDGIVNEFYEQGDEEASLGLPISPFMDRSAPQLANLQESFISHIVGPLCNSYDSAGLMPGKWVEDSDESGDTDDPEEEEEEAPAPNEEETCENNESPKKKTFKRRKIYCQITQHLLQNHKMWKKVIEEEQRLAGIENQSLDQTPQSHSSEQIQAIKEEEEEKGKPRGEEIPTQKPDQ
- Type: functional
READOUT_KIND: AC50

Answered cases to consult:
[
  {
    "COMPOUND": "O=C(Nc1ccccc1)OCC(CN1CCCCC1)OC(=O)Nc1ccccc1 (configuration not stated)",
    "AC50": "> 10 µM"
  },
  {
    "COMPOUND": "C[C@H]1O[C@H](O[C@H]2[C@H](O)[C@@H](O)[C@@H](O[C@H]3[C@H](O)[C@@H](O)C(O)O[C@@H]3CO)O[C@@H]2CO)[C@H](O)[C@@H](O)[C@@H]1N[C@H]1C=C(CO)[C@@H](O)[C@H](O)[C@H]1O (some centres not stated)",
    "AC50": "> 30 µM"
  },
  {
    "COMPOUND": "C[C@H]1C[C@@H]2[C@H]([C@@H](O)C[C@@]3(C)[C@H]2CC[C@]3(O)C(=O)CO)[C@@]2(C)C=CC(=O)C=C12",
    "AC50": "> 30 µM"
  },
  {
    "COMPOUND": "COC(=O)[C@@H]1CC2=CC(=O)CC[C@]2(C)[C@@]23O[C@@H]2C[C@@]2(C)[C@@H](CC[C@@]24CCC(=O)O4)[C@H]13",
    "AC50": "> 30 µM"
  },
  {
    "COMPOUND": "CCc1nn(CCCN2CCN(c3cccc(Cl)c3)CC2)c(=O)n1CCOc1ccccc1",
    "AC50": "> 10 µM"
  },
  {
    "COMPOUND": "CC(C)Cc1ccc(CC(=O)O)cc1",
    "AC50": "> 30 µM"
  }
]

Turning now to a further record.
`NC(=O)c1ncn([C@@H]2O[C@H](CO)[C@@H](O)[C@H]2O)c1O` has a reported AC50 of > 30 µM
